Target: T1, hPRLR.mmh (soluble monomeric human PRLR) (human)
T1 construct: soluble monomeric PRLR protein
T1 chain: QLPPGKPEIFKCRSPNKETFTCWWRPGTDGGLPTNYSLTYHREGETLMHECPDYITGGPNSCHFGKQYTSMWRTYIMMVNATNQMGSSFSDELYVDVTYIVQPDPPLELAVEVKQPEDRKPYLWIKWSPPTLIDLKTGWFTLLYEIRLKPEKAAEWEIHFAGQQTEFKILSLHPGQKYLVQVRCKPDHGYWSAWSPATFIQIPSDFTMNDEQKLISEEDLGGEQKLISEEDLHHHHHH
Assay: SPR (Biacore), antibody capture, 37 C
MEASUREMENT NAME: Kd (nM)
Enter your answer as a number in nM; do not include the unit.

>>> observed_measurement("H1H6967N (antibody, human IgG1, V domains shown, also called H2M6967N) VH: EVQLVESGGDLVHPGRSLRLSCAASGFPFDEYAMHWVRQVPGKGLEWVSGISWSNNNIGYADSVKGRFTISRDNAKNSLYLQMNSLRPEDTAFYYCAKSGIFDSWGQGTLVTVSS VL: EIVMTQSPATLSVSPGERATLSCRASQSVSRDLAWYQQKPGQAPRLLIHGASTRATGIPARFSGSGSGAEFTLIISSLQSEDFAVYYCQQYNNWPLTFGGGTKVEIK")
2.2

Give its Kd value. Item: H1H6793P (antibody, human IgG1, V domains shown, human IgG1 Fc (H1H)) VH: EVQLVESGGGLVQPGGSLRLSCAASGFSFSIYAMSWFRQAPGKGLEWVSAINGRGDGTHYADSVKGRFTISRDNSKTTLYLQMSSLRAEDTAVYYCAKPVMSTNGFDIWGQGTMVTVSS VL: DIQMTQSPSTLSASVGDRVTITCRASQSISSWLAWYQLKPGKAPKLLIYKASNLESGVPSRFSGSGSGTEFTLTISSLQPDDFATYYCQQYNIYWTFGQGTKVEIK 3.02

Similarly, H1H6765P (antibody, human IgG1, V domains shown, human IgG1 Fc (H1H)) VH: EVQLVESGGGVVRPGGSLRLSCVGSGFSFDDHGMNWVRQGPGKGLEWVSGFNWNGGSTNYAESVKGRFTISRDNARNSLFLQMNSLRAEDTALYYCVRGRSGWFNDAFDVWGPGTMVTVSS VL: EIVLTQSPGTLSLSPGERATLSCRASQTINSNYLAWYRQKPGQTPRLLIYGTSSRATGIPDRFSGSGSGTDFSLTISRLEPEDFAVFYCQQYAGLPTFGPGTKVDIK ? 0.292
